Source of measurements: the supplement of paper PMC7877785

assay: self-splicing fitness, log relative to wild type (ln ratio); higher = more splicing; Tetrahymena group I intron in knt gene, E. coli kanamycin selection, DiMSum; sequences stand for … in CUCUCU…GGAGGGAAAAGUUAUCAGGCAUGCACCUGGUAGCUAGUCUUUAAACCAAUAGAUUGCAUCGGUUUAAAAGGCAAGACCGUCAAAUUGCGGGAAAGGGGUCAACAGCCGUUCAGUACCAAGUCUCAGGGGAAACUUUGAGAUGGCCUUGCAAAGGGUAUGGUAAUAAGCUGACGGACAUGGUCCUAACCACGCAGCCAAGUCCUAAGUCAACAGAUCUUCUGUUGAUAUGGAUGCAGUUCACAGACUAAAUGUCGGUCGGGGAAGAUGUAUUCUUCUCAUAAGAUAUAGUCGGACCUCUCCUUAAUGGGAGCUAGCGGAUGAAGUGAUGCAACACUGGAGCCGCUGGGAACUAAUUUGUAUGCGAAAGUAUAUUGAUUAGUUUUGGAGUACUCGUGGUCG; conditions: 30 °C;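 further: selection with 25 µg/mL kanamycin versus none on LB agar overnight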
self-splicing fitness (ln) overview
OBSERVABLE: self-splicing fitness (ln)

SEQUENCE_TEXT | EXPERIMENTAL_VALUE
GGGCAGCAAUAUUACGCGUU | -0.662
AUUUAGCAAUAUUACGCUCA | -1.14
AGAUAGCAAUAUUACGCGCC | -0.504
CGUUAGCAAUAUUACGAUCC | -1.74
CCUGAGCAAUAUUACGACAG | -1.3
CCUGAGCAAUAUUACGCCGC | -2.83
AGUGAGCAAUAUUACGAACG | -0.686
UAGAAGCAAUAUUACGUGAA | -2.05
UAAUAGCAAUAUUACGUUAA | -3.02
CACUAGCAAUAUUACGUGAC | -2.12
UCGAAGCAAUAUUACGAGCA | -1.77
GCUUAGCAAUAUUACGUAGG | -1.51
UGGAAGCAAUAUUACGUUCG | 0.201
ACAUAGCAAUAUUACGGAGG | -3
GAAUAGCAAUAUUACGGUGG | -3.06
UGUAAGCAAUAUUACGCAUC | -3.16
UGGCAGCAAUAUUACGUACA | 0.117
CCCUAGCAAUAUUACGGCAU | -3.41
UACGAGCAAUAUUACGGAGA | -3.09
CAUAAGCAAUAUUACGACAU | -3.64
CACAAGCAAUAUUACGCUGA | -2.12
GCGCAGCAAUAUUACGAACA | -1.64
AGCAAGCAAUAUUACGGGCU | -2.45
GCCUAGCAAUAUUACGAUCU | -2.18
GUACAGCAAUAUUACGAGGU | -4.68
UCCGAGCAAUAUUACGCCAU | -2.56
UAUUAGCAAUAUUACGACGC | -2.92
GUUCAGCAAUAUUACGGCAG | -2.82
AUUCAGCAAUAUUACGUUGC | -2.72
UUGAAGCAAUAUUACGGUGA | -0.275
CAACAGCAAUAUUACGGAGC | -2.28
UGUGAGCAAUAUUACGGCCC | -1.88
AUUCAGCAAUAUUACGGGAG | -0.828
CAUUAGCAAUAUUACGCUCG | -0.328
AGACAGCAAUAUUACGAGAA | -2.15
GGAGAGCAAUAUUACGUAGG | -3.43
CCGAAGCAAUAUUACGGUGC | -3.26
ACGCAGCAAUAUUACGGUAC | -1.03
UCAUAGCAAUAUUACGGCGG | -0.555
UAAAAGCAAUAUUACGCUCC | -2.04
GUUUAGCAAUAUUACGUACC | -1.45
UAUAAGCAAUAUUACGUCCA | -1.23
GCGGAGCAAUAUUACGCCCU | -2.95
CCGCAGCAAUAUUACGGGAG | -3.26
GGUUAGCAAUAUUACGUUCA | 0.228
AGCGAGCAAUAUUACGGAAG | -4.34
AGCGAGCAAUAUUACGUGGC | -4.97
AAAGAGCAAUAUUACGUGUA | -3.3
UCAAAGCAAUAUUACGCCCC | -2.12
UACUAGCAAUAUUACGGACG | -0.258
UUCUAGCAAUAUUACGCGCG | -2.24
AAGUAGCAAUAUUACGUGAU | -2.24
UGACAGCAAUAUUACGGGAA | -1.33
CGCAAGCAAUAUUACGGGAC | -3.18
GUAUAGCAAUAUUACGAGUC | -3.65
GAGAAGCAAUAUUACGUGCA | -0.762
AGGAAGCAAUAUUACGCUUU | -4.15
UCUGAGCAAUAUUACGUCAG | -1.48
CUAUAGCAAUAUUACGAACU | -3.67
AAAGAGCAAUAUUACGGUGC | -3.49
GAGCAGCAAUAUUACGGGUA | -3.4
